- assayed_system: human PD-1 / PD-L1-Ig binding on Jurkat cell line over-expressing human PD-1 (Jurkat-PD-1) (Homo sapiens)
- Construct: expressed in transfected cells; host or cells: Jurkat
- Sequence (Q15116 25-288): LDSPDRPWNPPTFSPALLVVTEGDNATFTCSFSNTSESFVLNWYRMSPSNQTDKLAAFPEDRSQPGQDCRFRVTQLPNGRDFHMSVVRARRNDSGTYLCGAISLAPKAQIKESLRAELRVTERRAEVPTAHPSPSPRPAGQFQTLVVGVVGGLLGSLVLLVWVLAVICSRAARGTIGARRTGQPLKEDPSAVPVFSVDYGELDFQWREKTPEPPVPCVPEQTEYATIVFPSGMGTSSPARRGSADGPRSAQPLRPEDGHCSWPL
- assay_details: Jurkat-PD-1 Cell Binding High-Content Screening Assay (CBA)
- Assay type: cell-based
- particulars: Jurkat-PD-1 cells, PE-labeled PD-L1-Ig 20 nM final; read-out: Jurkat HPD1_PDL1 IC50
experimental_endpoint: pIC50
Keep it numeric: pIC50 is minus log10 of the concentration in mol/L.

Ask: For the compound CC(C)C[C@H]1NC(=O)[C@H](CCCN)NC(=O)[C@H](CCCNC(N)=O)NC(=O)[C@H](Cc2ccc(-c3ccccc3)cc2)NC(=O)[C@H](C(C)C)NC(=O)[C@H](Cc2c[nH]c3ccccc23)NC(=O)[C@H](CC(=O)O)NC(=O)[C@H](Cc2ccc(OCC(=O)O)cc2)NC(=O)[C@H](CN)NC(=O)CSC[C@@H](C(=O)N[C@@H](C)C(N)=O)NC(=O)[C@H]([C@@H](C)O)NC(=O)[C@H](C(C)C)NC(=O)[C@H](Cc2ccccn2)NC(=O)[C@H](CCN)NC1=O [Compound 1349] , give its reported pIC50.
Result: 7.26

----------
- assayed_system: human PD-1 / PD-L1-Ig binding on Jurkat cell line over-expressing human PD-1 (Jurkat-PD-1) (Homo sapiens)
- Construct: expressed in transfected cells; host or cells: Jurkat
- assay_details: Jurkat-PD-1 Cell Binding High-Content Screening Assay (CBA)
- Type: cell-based
- particulars: Jurkat-PD-1 cells, PE-labeled PD-L1-Ig 20 nM final; read-out: Jurkat HPD1_PDL1 IC50
Where a SMILES comes first, the peptide text is derived from it. Bridges are numbered along the chain shown (N, C = ends). [ ]: non-standard residue; d: D form. Bip = N[C@@H](Cc1ccc(-c2ccccc2)cc1)C(=O)O; Cit = NC(=O)NCCC[C@H](N)C(=O)O; Dab = NCC[C@H](N)C(=O)O; Dap = NC[C@H](N)C(=O)O
For each entry below, report its pIC50 value.
Keep it numeric: pIC50 is minus log10 of the concentration in mol/L.

Ask: For the compound CC(C)C[C@H]1NC(=O)[C@H](CCCN)NC(=O)[C@H](C(C)C)NC(=O)[C@H](Cc2ccc(-c3ccccc3)cc2)NC(=O)[C@H](C(C)C)NC(=O)[C@H](Cc2c[nH]c3ccccc23)NC(=O)[C@H](CC(=O)O)NC(=O)[C@H](Cc2ccc(OCC(=O)O)cc2)NC(=O)[C@H](CCCCNC(=N)N)NC(=O)CSC[C@@H](C(=O)N[C@@H](C)C(N)=O)NC(=O)[C@H](C(C)O)NC(=O)[C@H](C(C)C)NC(=O)[C@H](CC2CCCCC2)NC(=O)[C@H](Cc2c[nH]cn2)NC1=O (stereo partly shown) , give its reported pIC50.
Result: 7.71

Ask: For the compound `COc1cccc(C[C@@H]2NC(=O)[C@H](CC(=O)O)NC(=O)[C@H](Cc3ccc(OCC(=O)O)cc3)NC(=O)[C@H](Cc3ccc(OCC(=O)O)cc3)NC(=O)CSC[C@@H](C(=O)N[C@@H](C)C(N)=O)NC(=O)[C@H]([C@@H](C)O)NC(=O)[C@H](C(C)C)NC(=O)[C@H](CC3CCCCC3)NC(=O)[C@H](CCN)NC(=O)[C@@H](CC(C)C)NC(=O)[C@H](CCCN)NC(=O)[C@H](CCC(=O)O)NC(=O)[C@H](Cc3ccc(-c4ccccc4)cc3)NC(=O)[C@H](C(C)C)NC2=O)c1` , give its reported pIC50.
Result: 8.28

Ask: For the compound CC(C)C[C@@H]1NC(=O)[C@H](Cc2c[nH]c3ccccc23)NC(=O)[C@H](CC(=O)O)NC(=O)[C@H](Cc2ccc(O)cc2)NC(=O)[C@H](Cc2ccccc2)NC(=O)CSC[C@@H](C(=O)NCC(N)=O)NC(=O)[C@H]([C@@H](C)O)NC(=O)[C@H](C(C)C)NC(=O)[C@H](CC(C)C)NC(=O)[C@H](CCN)NC(=O)[C@@H](C)NC(=O)[C@H](CN)NC(=O)[C@H](C(C)C)NC(=O)[C@H](Cc2ccc(-c3ccccc3)cc2)NC1=O [Compound 1078] ({CH2CO}-FYDWL[Bip]V[Dap][dA][Dab]LVTCG-NH2; thioether N-14) , give its reported pIC50.
Result: 7.40

Ask: For the compound CC(C)C[C@@H]1NC(=O)[C@H](Cc2c[nH]c3ccccc23)NC(=O)[C@H](CC(=O)O)NC(=O)[C@H](Cc2ccc(O)cc2)NC(=O)[C@H](Cc2ccccc2)NC(=O)CSC[C@@H](C(=O)N[C@@H](C)C(N)=O)NC(=O)[C@H](CO)NC(=O)[C@H](C(C)C)NC(=O)[C@H](CC(C)C)NC(=O)[C@H](CCN)NC(=O)[C@@H](CC(C)C)NC(=O)[C@H](CCN)NC(=O)[C@H](CCCNC(N)=O)NC(=O)[C@H](Cc2ccc(-c3ccccc3)cc2)NC1=O [Compound 1228] ({CH2CO}-FYDWL[Bip][Cit][Dab][dL][Dab]LVSCA-NH2; thioether N-14) , give its reported pIC50.
Result: 7.76
